Assayed System: T1, murine GPC3 (6938-GP; R&D systems), biotinylated (murine, UniProt Q8CFZ4 25-558, limits assumed, biotinylated using standard NHS chemistry)
T1 construct: Bought protein; also called mouse GPC3
T1 sequence (Q8CFZ4 25-558 limits assumed): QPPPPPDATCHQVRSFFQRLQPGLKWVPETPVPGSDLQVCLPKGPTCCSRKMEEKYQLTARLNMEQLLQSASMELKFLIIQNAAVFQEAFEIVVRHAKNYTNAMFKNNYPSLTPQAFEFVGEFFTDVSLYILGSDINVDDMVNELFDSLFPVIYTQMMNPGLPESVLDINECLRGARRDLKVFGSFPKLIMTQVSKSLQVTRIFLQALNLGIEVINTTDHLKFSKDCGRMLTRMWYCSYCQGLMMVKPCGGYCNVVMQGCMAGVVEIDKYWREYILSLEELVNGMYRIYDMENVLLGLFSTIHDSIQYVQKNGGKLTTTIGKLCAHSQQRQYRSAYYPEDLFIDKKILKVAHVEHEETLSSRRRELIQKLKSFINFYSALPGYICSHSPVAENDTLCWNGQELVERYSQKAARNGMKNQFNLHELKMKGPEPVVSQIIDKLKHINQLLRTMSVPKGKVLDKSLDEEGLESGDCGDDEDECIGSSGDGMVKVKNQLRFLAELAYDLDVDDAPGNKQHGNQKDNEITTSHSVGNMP
Method Notes: SPR (Biacore T200), biotinylated GPC3 captured on chip, mutein in flow
Experimental: SPR analysis of the binding of the optimized Lcn2 muteins to human and mouse GPC3 was performed at 25° C. on a Biacore T200 instrument (GE Healthcare) using HBS-EP+ (1x; BR-1006-69; GE Healthcare) as running buffer. […] The data were double-referenced by subtraction of the corresponding signals measured for the control channel (loaded with Biotin CAPture reagent only) and by subtraction of buffer injections from the binding responses. […]
Parameter Measured: kon (M⁻¹ s⁻¹)
Report only the number, with the unit M⁻¹ s⁻¹ understood.

Ask | State, in one line, measured kon of lipocalin mutein of SEQ ID NO: 7 (designed binder, hNGAL (Lcn2) mutein; also called optimized GPC3 specific lipocalin mutein) QDSTSDLIPAPPLSKVPLQQNFQDNQFQGKWYVVGVAGNGMLREDKDPLKMRATIYELKEDKSYDVTSVAFRNKKCHYKIGTFVPGSQPGEFTLGQIKSGPGETSNLVRVVSTNYNQHAMVFFKEVRQNREWFFITLYGRTKELTSELKENFIRFSKSLGLPENHIVFPVPIDQCIDGSAWSHPQFEK
Reply | 1e+06

Ask | State, in one line, measured kon of lipocalin mutein of SEQ ID NO: 10 (designed binder, hNGAL (Lcn2) mutein; also called optimized GPC3 specific lipocalin mutein) QDSTSDLIPAPPLSKVPLQQNFQDNQFQGKWYVVGRAGNGALREDKDPPKMWATIYELKEDKSYDVTNVRFARKKCVYSIGTFVPGSQPGEFTLGPIKSEPGNTASLVRVVSTNYNQHAMVFFKEVYQNREIFFIILYGRTKELTSELKENFIRFSKSLGLPENHIVFPVPIDQCIDGSAWSHPQFEK
Reply | 1.8e+06

Ask | State, in one line, measured kon of lipocalin mutein of SEQ ID NO: 11 (designed binder, hNGAL (Lcn2) mutein; also called optimized GPC3 specific lipocalin mutein) QDSTSDLIPAPPLSKVPLQQNFQDNQFQGKWYVVGRAGNVALREDKDPPKMRATIYELKEDKSYDVTAVRFARKKCLYSIGTFVPGSQPGEFTLGRIKSEPGYTANLVRVVSTNYNQHAMVFFKEVYQNREIFFIILYGRTKELTSELKENFIRFSKSLGLPENHIVFPVPIDQCIDGSAWSHPQFEK
Reply | 2.9e+06
